Origin of measurements: paper PMC7822176

Test: MTT cell viability test, hCMEC/D3
Type: cell-based
Details: human, hCMEC/D3 cells, 50 µM, read-out: % viable cells hCMEC/D3
Procedure: Standard MTT assay (3-(4,5-dimethylthiazol-2-yl)-2,5-diphenyltetrazolium bromide; Sigma Aldrich, Prague, Czech Republic) was used according to the manufacturer’s protocols on the CHO-K1 (Chinese hamster ovary, ECACC, Salisbury, UK) and hCMEC/D3 (Sigma Aldrich, St. Louis, MO, USA). […] Cell viability was assessed spectrophotometrically by the amount of formazan produced. The absorbance was measured at 570 nm with a 650-nm reference wavelength on Synergy HT (BioTek, Winooski, VT, USA). […]
// values below are reported viability at 50 µM

molecule: Cl.c1ccc2c(c1)-c1ccccc1C2NC1CCC1
viability at 50 µM: 92.8%

molecule: CCCCNC1c2ccccc2-c2ccccc21.Cl [Compound 3m, N-Butyl-9H-fluoren-9-amine hydrochloride]
viability at 50 µM: 82.1%

molecule: Cl.c1ccc2c(c1)-c1ccccc1C2NC1CCCCC1
viability at 50 µM: 93.4%

molecule: CC(C)CNC1c2ccccc2-c2ccccc21.Cl
viability at 50 µM: 98.2%
